molecular target: Solute carrier family 12 member 5 (Homo sapiens); experiment: KCC2 modulator potency by thallium flux, dose response, cell-based, HEK293 KCC2, FluoZin-2 fluorescence (AID 1736)
Results filed as inconclusive are left out. Activity calls are given as the source filed them.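 Rule for the calls: active = dose curve converging in at least two of three replicates, whether well supported or a less certain trend; inactive = fewer than two replicates with a converged curve.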
The reply should name one outcome from yes (1) = active, no (0) = inactive

Mol smiles	Class label
O=C(Nn1c(O)c(C=C2N=c3ccccc3=N2)sc1=S)c1ccccc1Cl	yes (1)

Fill in: this test's call for "N#CC1=C(N)NC(SCc2ccccc2)=C(C#N)C12CCCCC2" is ___
no (0)

Fill in: this test's call for "Cc1ccc(/C=C2\SC(=S)N(/N=C/c3cc([N+](=O)[O-])ccc3O)C2=O)o1" is ___
no (0)

Fill in: this test's call for "O=C(Nn1c(O)c(C=C2N=c3ccccc3=N2)sc1=S)c1ccccc1" is ___
no (0)

Fill in: this test's call for "Cc1cccc(NC(=S)N=Nc2c(O)n(CN3CCOCC3)c3ccccc23)c1C" is ___
no (0)

----------
biological target: Solute carrier family 12 member 5 (Homo sapiens) (UniProt Q9H2X9); test: KCC2 modulator potency by thallium flux, dose response, cell-based, HEK293 KCC2, FluoZin-2 fluorescence (AID 1736)
Sequence (Q9H2X9 whole entry, looked up): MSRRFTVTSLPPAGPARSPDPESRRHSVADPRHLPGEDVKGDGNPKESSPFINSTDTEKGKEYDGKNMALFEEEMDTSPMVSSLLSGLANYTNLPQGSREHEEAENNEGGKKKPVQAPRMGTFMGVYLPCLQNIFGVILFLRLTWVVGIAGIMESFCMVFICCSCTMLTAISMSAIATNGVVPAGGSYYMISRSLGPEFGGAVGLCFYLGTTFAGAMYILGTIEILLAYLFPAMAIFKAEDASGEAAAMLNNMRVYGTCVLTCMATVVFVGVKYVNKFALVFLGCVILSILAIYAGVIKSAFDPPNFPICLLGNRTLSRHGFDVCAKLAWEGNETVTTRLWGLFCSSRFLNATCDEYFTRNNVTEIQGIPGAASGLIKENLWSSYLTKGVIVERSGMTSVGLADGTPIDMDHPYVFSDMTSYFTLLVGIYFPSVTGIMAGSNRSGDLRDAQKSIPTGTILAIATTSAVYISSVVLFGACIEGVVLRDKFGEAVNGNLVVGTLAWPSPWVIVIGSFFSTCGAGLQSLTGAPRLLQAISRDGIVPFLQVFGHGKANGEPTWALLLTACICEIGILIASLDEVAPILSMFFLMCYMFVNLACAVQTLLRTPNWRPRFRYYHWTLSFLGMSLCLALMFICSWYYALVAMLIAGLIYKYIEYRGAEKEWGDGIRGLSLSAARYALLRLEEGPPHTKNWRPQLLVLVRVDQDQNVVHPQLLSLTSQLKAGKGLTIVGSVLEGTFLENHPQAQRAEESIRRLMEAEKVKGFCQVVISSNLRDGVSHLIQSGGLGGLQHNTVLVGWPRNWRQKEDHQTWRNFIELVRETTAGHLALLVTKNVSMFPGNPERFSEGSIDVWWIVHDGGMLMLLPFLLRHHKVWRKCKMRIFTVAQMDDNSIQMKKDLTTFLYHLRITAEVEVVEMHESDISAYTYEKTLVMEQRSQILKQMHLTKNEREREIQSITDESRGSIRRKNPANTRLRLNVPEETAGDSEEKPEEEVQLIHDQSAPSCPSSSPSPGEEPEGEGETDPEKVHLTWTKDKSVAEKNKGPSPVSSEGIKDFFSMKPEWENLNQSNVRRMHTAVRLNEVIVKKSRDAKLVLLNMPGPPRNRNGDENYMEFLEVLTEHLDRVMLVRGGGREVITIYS
Results filed as inconclusive are left out. Activity calls are given as the source filed them.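 The calls were made as follows: active = dose curve converging in at least two of three replicates, whether well supported or a less certain trend; inactive = fewer than two replicates with a converged curve.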
The reply should name one outcome from active, inactive

Molecule	Class label
COc1ccccc1NC(=S)N=Nc1c(O)[nH]c2ccc(Br)cc12	active

Fill in: this test's call for O=C1C2Sc3[nH]c(=O)sc3C(c3ccccc3)C2C(=O)N1c1ccccc1 (centres undefined) is ___
active

Fill in: this test's call for "NC(=S)N=Nc1c(O)n(Cc2ccccc2)c2ccccc12" is ___
active

Fill in: this test's call for "C/C(=N\NC(=O)c1ccc(Br)cc1)C1C(=O)c2ccccc2C1=O" is ___
inactive
